Each record here notes measured EC50.
molecular target: UniProt P35367; experiment: Agonist activity at human H1 receptor expressed in insect Sf9 cells co-expressing RGS4 assessed as gamma[32P]GTP binding by liquid scintillation counting
Supply the numeric figure in nM, leaving out any unit text.

INSERT INTO measurements (smiles_text, target_under_test, property, recorded_result) VALUES
  ('N/C(=N\C(=O)c1cc2ccccc2[nH]1)NCCCc1c[nH]cn1', 'UniProt P35367', 'EC50', 1700),
  ('CCCC(=O)/N=C(\N)NCCCc1c[nH]cn1', 'UniProt P35367', 'EC50', 2190),
  ('CC(C)C(=O)/N=C(\N)NCCCc1c[nH]cn1', 'UniProt P35367', 'EC50', 2570),
  ('CCC(=O)/N=C(\N)NCCCc1c[nH]cn1', 'UniProt P35367', 'EC50', 3470);

Shift focus to the following entry.
EC50 recorded for this compound, "CC(=O)NC(N)=NCCCc1cnc[nH]1" , is 12900

----------
Each record here notes measured pKb.
target: Histamine H1 receptor (Homo sapiens, UniProt P35367); experiment: Antagonist activity at human H1 receptor expressed in insect Sf9 cells co-expressing RGS4 assessed as inhibition of histamine-induced gamma[32P]GTP binding by liquid scintillation counting
Sequence (P35367 whole entry): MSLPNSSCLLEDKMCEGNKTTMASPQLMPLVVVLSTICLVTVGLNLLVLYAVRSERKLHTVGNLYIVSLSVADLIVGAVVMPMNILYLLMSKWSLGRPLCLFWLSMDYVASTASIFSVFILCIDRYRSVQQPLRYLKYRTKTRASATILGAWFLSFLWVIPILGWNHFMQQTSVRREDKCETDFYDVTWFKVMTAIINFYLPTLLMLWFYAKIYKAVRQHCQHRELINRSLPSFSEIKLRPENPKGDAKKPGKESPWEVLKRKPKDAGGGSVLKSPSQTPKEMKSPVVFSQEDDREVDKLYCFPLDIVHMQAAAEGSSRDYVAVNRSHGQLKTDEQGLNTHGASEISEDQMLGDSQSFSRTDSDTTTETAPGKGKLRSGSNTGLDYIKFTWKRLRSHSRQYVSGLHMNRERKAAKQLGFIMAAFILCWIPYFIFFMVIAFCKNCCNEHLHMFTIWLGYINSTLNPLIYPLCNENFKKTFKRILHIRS
Answer field: number only, no words.

Before answering, review these 2 worked examples.
INSERT INTO assay_data (smiles_text, recorded_result) VALUES
  ('N/C(=N\C(=O)Cc1c[nH]c2ccccc12)NCCCc1c[nH]cn1', 5.68),
  ('N/C(=N\C(=O)CCCNC(=O)c1cc2ccccc2[nH]1)NCCCc1c[nH]cn1', 4.96);

pKb recorded for this compound, "N/C(=N\C(=O)CCc1c[nH]c2ccccc12)NCCCc1c[nH]cn1" , is 5.4

----------
Each record here notes measured Activity.
target: Histamine H2 receptor (Homo sapiens, UniProt P25021); test: Intrinsic activity at human H2 receptor expressed in insect Sf9 cells co-expressing GsalphaS fusion protein assessed as gamma[32P]GTP binding at 10 uM by liquid scintillation counting relative to histamine
Sequence (P25021 whole entry, the tested form may be a part): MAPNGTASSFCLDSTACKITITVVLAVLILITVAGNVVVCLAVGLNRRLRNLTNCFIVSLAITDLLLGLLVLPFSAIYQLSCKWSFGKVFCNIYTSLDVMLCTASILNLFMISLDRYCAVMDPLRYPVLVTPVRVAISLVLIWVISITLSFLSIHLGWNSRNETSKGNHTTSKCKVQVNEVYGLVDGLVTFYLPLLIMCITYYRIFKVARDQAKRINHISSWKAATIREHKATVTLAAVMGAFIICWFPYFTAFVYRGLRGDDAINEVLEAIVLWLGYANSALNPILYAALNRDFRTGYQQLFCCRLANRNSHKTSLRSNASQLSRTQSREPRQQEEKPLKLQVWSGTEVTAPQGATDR
Answer field: number only, no words.

Before answering, review these 5 worked examples.
INSERT INTO measurements (molecule, recorded_result) VALUES
  ('CC(=O)/N=C(\N)NCCCc1c[nH]cn1', 0.76),
  ('CCCC(=O)/N=C(\N)NCCCc1c[nH]cn1', 0.77),
  ('N/C(=N\C(=O)CCCNC(=O)c1cc2ccccc2[nH]1)NCCCc1c[nH]cn1', 0.51),
  ('CCC(=O)/N=C(\N)NCCCc1c[nH]cn1', 0.83),
  ('N=C(N)NCCCc1c[nH]cn1', 0.66);

# "CN(CCC(=O)/N=C(\N)NCCCc1c[nH]cn1)C(=O)c1cc2ccccc2[nH]1" with Histamine H2 receptor (Homo sapiens, UniProt P25021): Activity is 0.68

# "N/C(=N\C(=O)CCc1c[nH]c2ccccc12)NCCCc1c[nH]cn1" with Histamine H2 receptor (Homo sapiens, UniProt P25021): Activity is 0.77

# "N/C(=N\C(=O)CCNC(=O)c1cc2ccccc2[nH]1)NCCCc1c[nH]cn1" with Histamine H2 receptor (Homo sapiens, UniProt P25021): Activity is 0.33

# "N/C(=N\C(=O)c1cc2ccccc2[nH]1)NCCCc1c[nH]cn1" with Histamine H2 receptor (Homo sapiens, UniProt P25021): Activity is 0.87

# CC(CC(=O)/N=C(\N)NCCCc1c[nH]cn1)c1ccccc1 (stereo not drawn) with Histamine H2 receptor (Homo sapiens, UniProt P25021): Activity is 0.87

# "N/C(=N\C(=O)CNC(=O)c1cc2ccccc2[nH]1)NCCCc1c[nH]cn1" with Histamine H2 receptor (Homo sapiens, UniProt P25021): Activity is 0.51

# "CC(C)C(=O)/N=C(\N)NCCCc1c[nH]cn1" with Histamine H2 receptor (Homo sapiens, UniProt P25021): Activity is 0.86

# "N/C(=N\C(=O)Cc1c[nH]c2ccccc12)NCCCc1c[nH]cn1" with Histamine H2 receptor (Homo sapiens, UniProt P25021): Activity is 0.81
